molecular target: Drosophila OR98a (Drosophila melanogaster, UniProt Q9VAZ3); construct: expressed in transfected cells; assay: Calcium ion fluorescence (GCaMP6) assay, OR98a stable HEK293 cell line; type: cell-based; settings: OR98a cell line, VOC concentration 100 μM
Sequence (Q9VAZ3 whole entry, one chain of several, the tested form may be a part): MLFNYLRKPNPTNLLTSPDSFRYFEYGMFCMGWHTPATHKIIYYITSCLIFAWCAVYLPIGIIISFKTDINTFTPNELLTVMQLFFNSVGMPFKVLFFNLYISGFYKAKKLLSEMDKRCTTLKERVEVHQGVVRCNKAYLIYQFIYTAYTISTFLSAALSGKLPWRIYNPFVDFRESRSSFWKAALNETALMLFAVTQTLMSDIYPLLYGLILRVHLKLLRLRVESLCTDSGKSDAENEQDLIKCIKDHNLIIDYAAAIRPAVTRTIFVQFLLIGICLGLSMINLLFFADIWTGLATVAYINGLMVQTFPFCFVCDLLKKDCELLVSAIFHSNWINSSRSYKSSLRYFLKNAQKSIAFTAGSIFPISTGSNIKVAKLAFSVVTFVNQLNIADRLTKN
experimental-endpoint: OR98a response (VUAA1-normalized) at 100 μM

{"columns": ["compound", "test-target", "measured-value"],
 "data": [
  ["C=CC(C)(O)CCC=C(C)C (centres unmarked)", "Drosophila OR98a (Drosophila melanogaster, UniProt Q9VAZ3)", 0.00],
  ["Cc1ccccc1C", "Drosophila OR98a (Drosophila melanogaster, UniProt Q9VAZ3)", 0.00],
  ["COC(=O)c1ccccc1 [methyl benzoate]", "Drosophila OR98a (Drosophila melanogaster, UniProt Q9VAZ3)", 0.12],
  ["CCCOC(C)=O [propyl acetate]", "Drosophila OR98a (Drosophila melanogaster, UniProt Q9VAZ3)", 0.11],
  ["CC/C=C\\CCO", "Drosophila OR98a (Drosophila melanogaster, UniProt Q9VAZ3)", 0.11]
]}

====

biological target: Drosophila OR71a (Drosophila melanogaster, UniProt Q9VUK5); construct: expressed in transfected cells; test: Calcium ion fluorescence (GCaMP6) assay, OR71a stable HEK293 cell line; format: cell-based; conditions: ligand concentration 10 (unit not given); 0.05 threshold, values below shown as 0
Sequence (Q9VUK5 whole entry, one chain of several, the tested form may be a part): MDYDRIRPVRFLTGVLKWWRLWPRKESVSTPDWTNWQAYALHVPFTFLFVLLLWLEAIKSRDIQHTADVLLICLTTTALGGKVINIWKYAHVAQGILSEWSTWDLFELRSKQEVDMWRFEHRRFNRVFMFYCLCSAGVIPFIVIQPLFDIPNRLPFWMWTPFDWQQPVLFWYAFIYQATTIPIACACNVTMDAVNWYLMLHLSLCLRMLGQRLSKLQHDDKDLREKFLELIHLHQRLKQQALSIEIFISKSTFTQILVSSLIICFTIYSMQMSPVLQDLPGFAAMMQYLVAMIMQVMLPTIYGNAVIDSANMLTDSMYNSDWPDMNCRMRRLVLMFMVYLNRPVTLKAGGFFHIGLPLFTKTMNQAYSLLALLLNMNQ

{"columns": ["compound", "DF norm AVERAGE OR71a"],
 "data": [
  ["CCCCCCCCCCCCCC", 0],
  ["Cc1ccccc1", 0],
  ["C=Cc1ccccc1", 0],
  ["CC/C=C\\CCO", 0],
  ["CCCCCCCCCCC", 0],
  ["CC1=CCC23CC1C(C)(C)C2CCC3C (stereo not shown)", 0],
  ["CC/C=C\\CCOC(C)=O [z3-hexenyl acetate]", 0]
]}

====

target: Drosophila OR10a (Drosophila melanogaster, UniProt Q9VYZ1); construct: expressed in transfected cells; assay: Calcium ion fluorescence (GCaMP6) assay, OR10a stable HEK293 cell line; type: cell-based; settings: HEK293, read-out: OR10a Average response (VUAA1-normalized), 10 μM VOC; 50 μM VUAA1 = 1; responses not exceeding 0.05 considered 0
Form field: activation at 10 µM (one value per entry).
experimental-endpoint: activation at 10 µM (%)

{"columns": ["molecule", "measured-value"],
 "data": [
  ["C=C1CCC2(C(C)C)CC12 (stereo not drawn) [sabinene]", 0],
  ["CCCCC(C)=O [2-hexanone]", 0],
  ["CC1=CCC2C(C1)C2(C)C (stereo not drawn) [3-carene]", 0]
]}

====

molecular target: Drosophila OR71a (Drosophila melanogaster); construct: expressed in transfected cells; assay: Calcium ion fluorescence (GCaMP6) assay, OR71a stable HEK293 cell line; type: cell-based; details: OR71a cell line; cc. 10 µM; VUAA1-normalized response, mean of biological replicates

{"columns": ["compound", "Average response"],
 "data": [
  ["CCCCCO", 0.00],
  ["O=Cc1ccccc1", 0.00],
  ["CCCCOC(=O)CC [butyl propanoate]", 0.00],
  ["Cc1cccc(O)c1", 0.0152],
  ["C=CC(C)(O)CCC=C(C)C (stereo not shown)", 0.0443],
  ["C=C1CC/C=C(\\C)CC[C@@H]2[C@@H]1CC2(C)C [(-)-trans-caryophyllene]", 0.00],
  ["CC1=CCC2C(C1)C2(C)C (stereo not shown)", 0.00],
  ["COC(=O)c1ccccc1O [methyl salicylate]", 0.0108],
  ["Cc1ccccc1", 0.00],
  ["C=C1CCC2CC1C2(C)C (stereo not shown)", 0.0361],
  ["C=C1CCC2(C(C)C)CC12 (stereo not shown)", 0.00],
  ["CC/C=C\\CCOC(C)=O [z3-hexenyl acetate]", 0.00],
  ["C=C(C)[C@H]1CC=C(C)CC1 [(R)-(+)-limonene]", 0.00]
]}

====

Form field: Average response (one value per entry).
target: Drosophila OR71a (Drosophila melanogaster, UniProt Q9VUK5); construct: expressed in transfected cells; test: Calcium ion fluorescence (GCaMP6) assay, OR71a stable HEK293 cell line; format: cell-based; details: OR71a cell line; cc. 100 µM; VUAA1-normalized response, mean of biological replicates
experimental-endpoint: Average response

{"columns": ["molecule", "experimental-endpoint", "measured-value"],
 "data": [
  ["C=CC(O)C/C=C\\CC (centres unmarked) [(5Z)-octa-1,5-dien-3-ol]", "Average response", 0.00],
  ["CC(C)=CCC/C(C)=C/CC/C(C)=C/CO [e,e-farnesol]", "Average response", 0.00],
  ["Cc1ccc(C(C)C)cc1 [p-cymene]", "Average response", 0.00],
  ["C=C1CCC2(C(C)C)CC12 (centres unmarked) [sabinene]", "Average response", 0.0235],
  ["CCCC(=O)OCC [ethyl butyrate]", "Average response", 0.00],
  ["Cc1cccc(C)c1 [m-xylene]", "Average response", 0.00],
  ["CC1=CC[C@@H](C(C)(C)O)CC1 [alpha-terpineol]", "Average response", 0.04],
  ["C=CC(C)(O)CCC=C(C)C (centres unmarked) [linalool]", "Average response", 0.0124]
]}

====

Target: Drosophila OR10a (Drosophila melanogaster)
Construct: expressed in transfected cells
Sequence (Q9VYZ1 1-406): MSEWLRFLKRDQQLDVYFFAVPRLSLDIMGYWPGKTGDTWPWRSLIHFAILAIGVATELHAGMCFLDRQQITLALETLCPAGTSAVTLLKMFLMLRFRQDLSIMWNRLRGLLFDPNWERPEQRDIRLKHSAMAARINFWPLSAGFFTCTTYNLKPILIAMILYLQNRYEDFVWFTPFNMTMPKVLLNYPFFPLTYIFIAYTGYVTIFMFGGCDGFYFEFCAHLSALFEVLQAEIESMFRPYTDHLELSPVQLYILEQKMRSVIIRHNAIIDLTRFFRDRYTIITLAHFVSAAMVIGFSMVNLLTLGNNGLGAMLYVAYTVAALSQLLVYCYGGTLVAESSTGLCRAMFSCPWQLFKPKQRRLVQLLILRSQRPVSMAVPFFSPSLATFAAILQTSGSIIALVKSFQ
Sequence (Q9VNB5 1-486 partner): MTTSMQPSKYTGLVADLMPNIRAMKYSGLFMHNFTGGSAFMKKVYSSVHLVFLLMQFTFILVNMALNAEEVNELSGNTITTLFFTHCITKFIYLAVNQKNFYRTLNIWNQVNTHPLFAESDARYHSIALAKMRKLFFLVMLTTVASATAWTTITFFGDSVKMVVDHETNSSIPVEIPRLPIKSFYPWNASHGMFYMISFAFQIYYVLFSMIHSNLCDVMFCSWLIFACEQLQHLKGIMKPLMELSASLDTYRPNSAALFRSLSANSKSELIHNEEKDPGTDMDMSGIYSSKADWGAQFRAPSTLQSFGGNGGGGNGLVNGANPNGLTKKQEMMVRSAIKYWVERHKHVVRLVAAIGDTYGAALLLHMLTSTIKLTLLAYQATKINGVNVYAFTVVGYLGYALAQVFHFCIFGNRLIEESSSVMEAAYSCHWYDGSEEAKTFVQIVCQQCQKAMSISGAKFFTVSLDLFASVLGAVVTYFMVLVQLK
Assay: Calcium ion fluorescence (GCaMP6) assay, OR10a stable HEK293 cell line
Assay type: cell-based
Conditions: 100 μM VOC; 50 μM VUAA1 = 1; responses not exceeding 0.05 considered 0
Could you mark each record fulfilled if its OR10a Average response (VUAA1-normalized) falls strictly under 0.03, and not fulfilled if it equals or exceeds it?

{"columns": ["compound", "class-label"],
 "data": [
  ["C=C(C)[C@H]1CC=C(C)CC1 [(R)-(+)-limonene]", "fulfilled"],
  ["CC/C=C/CCO [e3-hexenol]", "not fulfilled"],
  ["C=C(C)C1CCC2(C)OC2C1 (single isomer, unassigned; (+)) [(+)-limonene oxide]", "fulfilled"],
  ["CC(C)=CCC/C(C)=C/CC/C(C)=C/CO [e,e-farnesol]", "fulfilled"],
  ["CC/C=C\\CCO [Z3-hexenol]", "not fulfilled"],
  ["C=C1[C@H]2CC[C@@H]3[C@H]2C(C)(C)CCC[C@]13C [(+)-longifolene]", "fulfilled"],
  ["C=C(C)[C@H]1CC=C(C)CC1 [limonene]", "not fulfilled"],
  ["CC1=CCC[C@@]2(C)[C@@H]3CC[C@]12CC3(C)C [(−)-α-neoclovene]", "not fulfilled"]
]}

====

Form field: activity at 1 µM (one value per entry).
molecular target: Drosophila OR49b (Drosophila melanogaster); construct: expressed in transfected cells; test: cell-based; parameters: GCaMP6 calcium fluorescence in stable HEK293 OR+ORCO lines; peak dF normalised to 50 uM VUAA1 (=1); details: HEK293; relative to 50 uM VUAA1 response; below 0.05 set to 0; read-out: % activation
Sequence (Q9V6H2 whole entry, one chain of several): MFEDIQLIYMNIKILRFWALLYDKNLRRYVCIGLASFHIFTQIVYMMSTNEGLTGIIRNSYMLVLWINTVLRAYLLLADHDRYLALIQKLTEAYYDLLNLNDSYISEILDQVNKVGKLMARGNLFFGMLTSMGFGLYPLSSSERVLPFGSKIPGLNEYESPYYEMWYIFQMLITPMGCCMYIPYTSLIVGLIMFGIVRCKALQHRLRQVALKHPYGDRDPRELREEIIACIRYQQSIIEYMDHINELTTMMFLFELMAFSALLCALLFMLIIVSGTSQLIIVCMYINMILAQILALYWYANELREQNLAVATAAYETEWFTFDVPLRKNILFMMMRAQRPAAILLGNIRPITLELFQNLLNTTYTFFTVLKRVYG
experimental-endpoint: activity at 1 µM (%)

{"columns": ["compound", "measured-value"],
 "data": [
  ["C=C(C)C1CCC2(C)OC2C1 (single isomer, unassigned; (+)) [(+)-limonene oxide]", 0],
  ["CCCCCCCCCCCCCC", 6.86],
  ["C=C1CC[C@@]23C[C@@H]1C(C)(C)[C@@H]2CC[C@H]3C [(+)-beta-cedrene]", 0],
  ["COC(=O)c1ccccc1 [methyl benzoate]", 13.4],
  ["C=C1[C@H]2CC[C@@H]3[C@H]2C(C)(C)CCC[C@]13C [(+)-longifolene]", 7.75],
  ["CCCCCOC(C)=O [pentyl acetate]", 7.95],
  ["C=C(C)[C@H]1CC=C(C)CC1 [(R)-(+)-limonene]", 0]
]}
